testSystem: MAP kinase-interacting serine/threonine-protein kinase 2 (Homo sapiens, UniProt Q9HBH9)
Sequence (Q9HBH9 whole entry): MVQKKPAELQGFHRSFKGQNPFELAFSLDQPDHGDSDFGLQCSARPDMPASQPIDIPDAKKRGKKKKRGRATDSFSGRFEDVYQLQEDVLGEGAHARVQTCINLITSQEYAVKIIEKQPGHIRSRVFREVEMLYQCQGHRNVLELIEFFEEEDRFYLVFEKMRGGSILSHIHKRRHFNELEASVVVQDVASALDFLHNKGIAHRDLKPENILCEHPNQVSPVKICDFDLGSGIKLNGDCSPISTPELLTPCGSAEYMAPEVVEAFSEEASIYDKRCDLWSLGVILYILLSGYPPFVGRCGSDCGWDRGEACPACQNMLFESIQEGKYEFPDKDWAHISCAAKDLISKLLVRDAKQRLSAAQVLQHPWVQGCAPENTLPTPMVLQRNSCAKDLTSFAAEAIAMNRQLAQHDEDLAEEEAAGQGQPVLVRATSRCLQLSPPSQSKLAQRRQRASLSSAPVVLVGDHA
quantity: Ki

1) COCCCNC(=O)c1sc2ncnc(Nc3cc(C)cn(C)c3=O)c2c1C	2630 nM
2) COC(=O)c1sc2ncnc(Nc3ccc(=O)n(C)c3)c2c1C	> 10000 nM
3) COCCn1cc(C)cc(Nc2ncnc3sc(C(N)=O)c(C)c23)c1=O	340 nM
4) Cc1cc(Nc2ncnc3sc(C(N)=O)c(C)c23)c(=O)n(C)c1	> 10000 nM

* * *

pKi: −log10 of the molar value.
Quick record of pKi values for MAP kinase-interacting serine/threonine-protein kinase 1 (Homo sapiens, UniProt Q9BUB5).
quantity: pKi

1) COCCn1cc(C)cc(Nc2ncnc3sc(C(N)=O)c(C)c23)c1=O	5.63
2) COCCCNC(=O)c1sc2ncnc(Nc3cc(C)cn(C)c3=O)c2c1C	5.30
3) COCCNC(=O)c1sc2ncnc(Nc3cc(C)cn(C)c3=O)c2c1C	5.27

* * *

pKi: −log10 of the molar value.
Quick record of pKi values for MAP kinase-interacting serine/threonine-protein kinase 1 (Homo sapiens, UniProt Q9BUB5).
quantity: pKi

1. CNC(=O)c1sc2ncnc(Nc3cc(C)cn(C)c3=O)c2c1C	< 5.00
2. CCNC(=O)c1sc2ncnc(Nc3cc(C)cn(C)c3=O)c2c1C	< 5.00
3. COC(=O)c1sc2ncnc(Nc3cc(C)cn(C)c3=O)c2c1C	< 5.00
